Test: PAMPA (parallel artificial membrane permeability assay)
Assay type: in vitro ADME
Conditions: PAMPA; membrane permeation rate (Pe); 50 mM MOPSO buffer pH 6.5 with 5.0% glycocholic acid, 37° C., 18 hours; read-out: iPAMPA Pe
Positions of bridges follow the written chain, without caps; N, C: chain ends. Non-standard residues stand in square brackets, D forms with d. Residues, ends and D or L forms follow the SMILES beside them. ξ: configuration not given here. *: point of attachment. NMeF = CN[C@@H](Cc1ccccc1)C(=O)O; NMeL = CN[C@@H](CC(C)C)C(=O)O; Thr(3ξ) = CC(O)[C@H](N)C(=O)O; NMeA = CN[C@@H](C)C(=O)O; Piperidide = C1CCN(*)CC1; dNMeA = CN[C@H](C)C(=O)O
Observed property: Papp at 18 hours, 50 µM (×10⁻⁶ cm/s)
Respond with the bare value in ×10⁻⁶ cm/s.

**Q:** Consider the compound shown here: CC(C)C[C@H]1C(=O)N(C)[C@@H](Cc2ccccc2)C(=O)N[C@@H](Cc2ccccc2)C(=O)N(C)[C@@H](CC(C)C)C(=O)N[C@@H]([C@@H](C)O)C(=O)N(C)[C@@H](C)C(=O)N[C@H](C(=O)N2CCCCC2)CC(=O)N(C)[C@H](C)C(=O)N[C@@H](C)C(=O)N1C [DP-157] ([dNMeA]A[NMeL][NMeF]F[NMeL]T[NMeA]D-Piperidide; lactam N-9) What is its recorded Papp at 18 hours, 50 µM?
**A:** 27

**Q:** Repeat for the following compound: CC[C@H](C)[C@H](NC(=O)[C@H](CC(C)C)NC(=O)[C@H](Cc1ccccc1)NC(=O)[C@@H]1CCCN1C(=O)[C@H](CC(C)C)NC(=O)[C@@H]1CC(=O)N[C@@H](Cc2ccccc2)C(=O)N(C)[C@@H](Cc2ccccc2)C(=O)N(C)[C@@H](CC(C)C)C(=O)N[C@@H]([C@@H](C)O)C(=O)N(C)[C@@H](C)C(=O)N(C)[C@@H](CC(C)C)C(=O)N1)C(=O)N1CCCCC1 [DP-910] (F[NMeF][NMeL]T[NMeA][NMeL]DLPFLI-Piperidide; lactam N-7)
**A:** 0.16

**Q:** Repeat for the following compound: CC[C@H](C)[C@@H]1NC(=O)[C@H](CC(C)C)N(C)C(=O)[C@H](Cc2ccccc2)NC(=O)[C@@H](C)N(C)C(=O)C[C@@H](C(=O)N2CCCCC2)NC(=O)[C@H](Cc2ccccc2)NC(=O)[C@H](C(C)O)NC(=O)[C@@H]2CCCN2C(=O)[C@H](CC(C)C)N(C)C(=O)CNC(=O)[C@H](CC(C)C)N(C)C1=O (stereo partly drawn) [DP-162] ([dNMeA]F[NMeL]I[NMeL]G[NMeL]P[Thr(3ξ)]FD-Piperidide; lactam N-11)
**A:** 35

----------
Assay: PAMPA (parallel artificial membrane permeability assay)
Assay type: in vitro ADME
Details: PAMPA; membrane permeation rate (Pe); 50 mM MOPSO buffer pH 6.5 with 5.0% glycocholic acid, 37° C., 18 hours; read-out: iPAMPA Pe
Starred links: 1 amine or outer side, 2 acyl side, 3 side chain; linkers in the order of their positions; H or OH if unused. Positions of bridges follow the written chain, without caps; N, C: chain ends. Non-standard residues stand in square brackets, D forms with d. Residues, ends and D or L forms follow the SMILES beside them. *: point of attachment. Phe(4-(CH2)5CO) = O=C([C@H](Cc1ccc(CCCCCC(=O)[*:3])cc1)N[*:1])[*:2]; NMeF = CN[C@@H](Cc1ccccc1)C(=O)O; NMeβAla = CN(CCC(=O)[*:2])[*:1]; NMeL = CN[C@@H](CC(C)C)C(=O)O; NMeV = CN[C@H](C(=O)O)C(C)C; NMeA = CN[C@@H](C)C(=O)O; Piperidide = C1CCN(*)CC1; tBu = CC(C)(C)*
Provide the reported Papp at 18 hours, 50 µM of each item.
Respond with the bare value in ×10⁻⁶ cm/s.

**Q:** Consider the molecule shown here: CC[C@H](C)[C@@H]1NC(=O)CCCCCc2ccc(cc2)C[C@@H](C(=O)N2CCCCC2)NC(=O)[C@H](Cc2ccccc2)N(C)C(=O)[C@H](CC(C)C)N(C)C(=O)[C@H](C)N(C)C(=O)[C@H](Cc2ccccc2)N(C)C(=O)[C@H]([C@@H](C)O)NC(=O)[C@H](CC(C)C)N(C)C(=O)[C@H](C)N(C)C(=O)[C@H](CC(C)C)N(C)C1=O [DP-868] (I[NMeL][NMeA][NMeL]T[NMeF][NMeA][NMeL][NMeF][Phe(4-(CH2)5CO)]-Piperidide; lactam N-10) What is its recorded Papp at 18 hours, 50 µM?
**A:** 0.24

**Q:** Repeat for the following molecule: CC(C)C[C@@H]1NC(=O)[C@H](CC(C)C)N(C)C(=O)CCN(C)C(=O)C[C@@H](C(=O)N(C)[C@@H](Cc2ccccc2)C(=O)N[C@@H](C)C(=O)N2CCCCC2)NC(=O)[C@H](CC(C)C)N(C)C(=O)[C@H](Cc2ccccc2)NC(=O)[C@H](Cc2ccccc2)N(C)C(=O)[C@H](C)NC(=O)[C@H]([C@@H](C)O)NC(=O)[C@H](CC(C)C)N(C)C1=O [DP-369] ([NMeβAla][NMeL]L[NMeL]TA[NMeF]F[NMeL]D[NMeF]A-Piperidide; lactam N-10)
**A:** 26

**Q:** Repeat for the following molecule: CC(C)C[C@H]1C(=O)N(C)[C@@H](C(C)C)C(=O)N(C)[C@@H](C)C(=O)N[C@@H](Cc2ccccc2)C(=O)N(C)[C@@H](C)C(=O)N[C@H](C(=O)N2CCCCC2)CC(=O)N(C)[C@@H](C)C(=O)N[C@@H]([C@@H](C)O)C(=O)N(C)[C@@H](C)C(=O)N[C@@H](C)C(=O)N(C)[C@@H](Cc2ccccc2)C(=O)N1C [DP-322] ([NMeA]T[NMeA]A[NMeF][NMeL][NMeV][NMeA]F[NMeA]D-Piperidide; lactam N-11)
**A:** 10

**Q:** Repeat for the following molecule: CC(C)C[C@H]1C(=O)N[C@H](C(=O)N(C)[C@@H](Cc2ccccc2)C(=O)N(C)[C@@H](Cc2ccccc2)C(=O)N[C@@H](C)C(=O)N2CCCCC2)CC(=O)N(C)[C@@H](C)C(=O)N(C)[C@@H](C)C(=O)N(C)[C@@H](Cc2ccccc2)C(=O)N[C@@H]([C@@H](C)O)C(=O)N(C)[C@@H](C)C(=O)N(C)[C@@H](CC(C)C)C(=O)N(C)[C@@H](CC(C)C)C(=O)N[C@@H](C(C)C)C(=O)N1C [DP-206] ([NMeA][NMeA][NMeF]T[NMeA][NMeL][NMeL]V[NMeL]D[NMeF][NMeF]A-Piperidide; lactam N-10)
**A:** 9

**Q:** Repeat for the following molecule: CC(C)C[C@H]1C(=O)NCC(=O)N[C@H](C(=O)N2CCCCC2)CC(=O)N(C)CCC(=O)N[C@@H]([C@@H](C)O)C(=O)N(C)[C@@H](C)C(=O)N[C@@H](COC(C)(C)C)C(=O)N(C)[C@@H](Cc2ccccc2)C(=O)N1C [DP-522] ([NMeβAla]T[NMeA]S(tBu)[NMeF][NMeL]GD-Piperidide; lactam N-8)
**A:** 5.3

----------
Assay: Metabolic stability in human hepatic microsome
Assay type: in vitro ADME
Conditions: human, microsomes, pH 7.4, CL NADPH(+)
Starred links: 1 amine or outer side, 2 acyl side, 3 side chain; linkers in the order of their positions; H or OH if unused. Positions of bridges follow the written chain, without caps; N, C: chain ends. Non-standard residues stand in square brackets, D forms with d. Residues, ends and D or L forms follow the SMILES beside them. *: point of attachment. NMeF = CN[C@@H](Cc1ccccc1)C(=O)O; NMeGABA = CN(CCCC(=O)[*:2])[*:1]; NMeI = CC[C@H](C)[C@H](NC)C(=O)O; NMeβAla = CN(CCC(=O)[*:2])[*:1]; NMeL = CN[C@@H](CC(C)C)C(=O)O; NMeV = CN[C@H](C(=O)O)C(C)C; NMeA = CN[C@@H](C)C(=O)O; Piperidide = C1CCN(*)CC1; dNMeA = CN[C@H](C)C(=O)O
If the reported microsomal CLint at 1 uM equals or exceeds 40 µL/min/mg, assign rule met. If not, assign rule not met.

**Q:** Determine whether this compound has microsomal CLint at 1 uM no lower than 40 µL/min/mg: CC[C@H](C)[C@H]1C(=O)N[C@@H](Cc2ccccc2)C(=O)N(C)[C@@H](CC(C)C)C(=O)N[C@@H](CC(C)C)C(=O)N[C@H](C(=O)N2CCCCC2)CC(=O)N(C)[C@H](C)C(=O)N[C@@H](CC(C)C)C(=O)N(C)[C@@H](C)C(=O)N2CCC[C@H]2C(=O)N[C@@H]([C@@H](C)O)C(=O)N(C)[C@@H](Cc2ccccc2)C(=O)NCC(=O)N1C [DP-224] ([dNMeA]L[NMeA]PT[NMeF]G[NMeI]F[NMeL]LD-Piperidide; lactam N-12)
**A:** rule not met

**Q:** Repeat for the following compound: CC[C@H](C)[C@@H]1NC(=O)[C@@H]2CCCN2C(=O)[C@H]([C@@H](C)O)NC(=O)[C@H](Cc2ccccc2)NC(=O)CNC(=O)[C@H](Cc2ccccc2)N(C)C(=O)[C@H](CC(C)C)NC(=O)[C@H](CC(C)C)N(C)C(=O)[C@H](CC(C)C)N(C)C(=O)CCCN(C)C(=O)C[C@@H](C(=O)N2CCCCC2)NC1=O [DP-113] ([NMeGABA][NMeL][NMeL]L[NMeF]GFTPID-Piperidide; lactam N-11)
**A:** rule met

**Q:** Repeat for the following compound: CC[C@H](C)[C@@H]1NC(=O)[C@H](C)N(C)C(=O)[C@H]([C@@H](C)O)NC(=O)[C@H](C(C)C)N(C)C(=O)[C@H](C)N(C)C(=O)[C@H](Cc2ccccc2)NC(=O)[C@H](C)NC(=O)C[C@@H](C(=O)N(C)[C@@H](Cc2ccccc2)C(=O)N[C@@H](C)C(=O)N2CCCCC2)NC(=O)[C@H](C)N(C)C(=O)[C@H](CC(C)C)N(C)C1=O [DP-288] (AF[NMeA][NMeV]T[NMeA]I[NMeL][NMeA]D[NMeF]A-Piperidide; lactam N-10)
**A:** rule met

**Q:** Repeat for the following compound: CC(C)C[C@@H]1NC(=O)[C@H](CC(C)C)N(C)C(=O)CNC(=O)[C@H](Cc2ccccc2)NC(=O)[C@H](C(C)C)N(C)C(=O)[C@H](Cc2ccccc2)NC(=O)[C@H](C)N(C)C(=O)CCN(C)C(=O)C[C@@H](C(=O)N(C)[C@@H](Cc2ccccc2)C(=O)N[C@@H](C)C(=O)N2CCCCC2)NC(=O)[C@H](C)N(C)C(=O)[C@H](CC(C)C)N(C)C1=O [DP-282] ([NMeβAla][NMeA]F[NMeV]FG[NMeL]L[NMeL][NMeA]D[NMeF]A-Piperidide; lactam N-11)
**A:** rule met
